Target: the molecule itself
Experiment: SEC
assay-endpoint: stoichiometry N
Lab note: record just the number, no unit beside it.

Entry AbLhpI, Δ1-pyrroline-2-carboxylate reductase of Azospirillum brasilense (enzyme, UniProt V5YW53 1-311, looked up) MTALSPIPVFDAADTAALLAYPALLATLGQAVADYAAGEIVSPERLVVPLQAGGVMLSMPSSARDLATHKLVNVCPGNGARGLPTILGQVTAYDASTGEMRFALDGPTVTGRRTAAVTALGIQALHGAAPRDILLIGTGKQAANHAEALAAIFPEARLHVRGTSADSAAAFCAAHRAQAPRLVPLDGDAIPDAIDVVVTLTTSRTPVYREAAREGRLVVGVGAFTADAAEIDANTVRASRLVVDDPAGARHEAGDLIVAQVDWQHVASLADVLGGTFDRSGPLLFKSVGCAAWDLAACRTARDALAARRAG ; stoichiometry N = 2

Data provenance is paper PMC3958920.
